# Tested on: Dengue
# test name: antiviral assay, Dengue in Vero
# Format: cell-based
# condition context: NR
pEC50: −log10 of the molar value.
measurement label: pEC50

Fill in: pEC50 on Dengue, entry `Nc1nccc2ncn([C@@H]3C=C(CO)[C@@H](O)[C@H]3O)c12`
< 4.00

###

# Test system: SARS
# test name: organism not typed
# Type: cell-based
# condition context: SARS; Visual; Vero 76
Counter-ions that a name gives are not always drawn.
measurement label: EC50

Specify reported EC50 for the compound shown: Nc1nccc2c1ncn2[C@@H]1C=C(CO)[C@@H](O)[C@H]1O [Compound 3-DNPA, Hydrochloride]
> 100 µM

###

# System: HFF cells
measurement label: CC50

Fill in: CC50 on HFF cells, entry Nc1ncnc2c1ccn2[C@@H]1C=C(CO)[C@@H](O)[C@H]1O [7-deaza neplanocin A]
> 300 µM

###

# System: Dengue
# test name: antiviral assay, Dengue in Vero
# Type: cell-based
# condition context: Visual
measurement label: EC50

Specify reported EC50 for the molecule shown: Nc1nccc2ncn([C@@H]3C=C(CO)[C@@H](O)[C@H]3O)c12 [Compound N7-3-DNPA]
> 100 µM

###

# System: HCMV
# test name: CPE assay, HCMV in HFF cells
# Format: cell-based, human cytomegalovirus
# condition context: Human betaherpesvirus 5
Where a name gives a salt, the structure may show the parent alone.
measurement label: pEC50
# pEC50 is unitless: minus log10 of the molar concentration; print number only

Specify reported pEC50 for the compound shown: Nc1nccc2c1ncn2[C@@H]1C=C(CO)[C@@H](O)[C@H]1O [Compound 3-DNPA, Hydrochloride]
6.44

###

# test name: cytotoxicity in the HCV RNA replicon assay
# condition context: primary, single-dilution test
measurement label: Cytotoxicity (% cell control)
Respond with the figure and its unit, in that order.

{"columns": ["molecule", "Cytotoxicity (% cell control)"],
 "data": [
  ["N#Cc1cn([C@@H]2C=C(CO)C(O)C2O)c2ncnc(N)c12 (stereo partly drawn)", "103.3%"],
  ["Nc1nc2c(ccn2[C@@H]2C=C(CO)C(O)C2O)c(=O)[nH]1 (stereo partly drawn)", "99.8%"],
  ["Nc1ncnc2c1c(Cl)cn2[C@@H]1C=C(CO)C(O)C1O (stereo partly drawn)", "81.2%"],
  ["Nc1ncnc2c1c(Br)cn2[C@@H]1C=C(CO)C(O)C1O (stereo partly drawn)", "76.3%"],
  ["C=Cc1cn([C@@H]2C=C(CO)C(O)C2O)c2ncnc(N)c12 (stereo partly drawn)", "99.7%"]
]}

Next item in the queue.
Specify reported Cytotoxicity (% cell control) for the molecule shown: Nc1ncnc2c1c([N+](=O)[O-])cn2[C@@H]1C=C(CO)C(O)C1O (stereo partly drawn)
101.5%

###

# Tested on: Hepatitis B Virus
# test name: in vitro anti-HBV activity, VIR (extracellular virion HBV DNA)
# Format: cell-based
# condition context: HBV; VIR; Huh7 ET (Table 3)
pEC50: −log10 of the molar value.
measurement label: pEC50

Specify reported pEC50 for the compound shown: Nc1nccc2ncn([C@@H]3C=C(CO)[C@@H](O)[C@H]3O)c12 [Compound N7-3-DNPA]
< 5.00

###

# Test system: HCV RNA replicon
# test name: HCV RNA replicon assay
# Type: cell-based, hepatitis C virus (HCV)
# condition context: Hepatitis C virus, HT @ 100 μM; read-out: EC50
// EC50 lookup, one value per entry
Report only the number, with the unit µM understood.

Specify reported EC50 for the compound shown: Nc1ncnc2c1c(Br)cn2[C@@H]1C=C(CO)C(O)C1O (stereo partly drawn)
16.7

Specify reported EC50 for the compound shown: C#Cc1cn([C@@H]2C=C(CO)C(O)C2O)c2ncnc(N)c12 (stereo partly drawn) [drawing 37]
20.1

Specify reported EC50 for the compound shown: Nc1ncnc2c1c(I)cn2[C@@H]1C=C(CO)C(O)C1O (stereo partly drawn)
2.14
